Biological target: POS-1 (Caenorhabditis elegans) binding to mex-3 RNA
Assay: C. elegans POS-1 RNA interaction disruptors – biochemical, fluorescence polarization, cherry-picked samples, set 2, counter-screen for MEX-5 RNA-binding inhibitor project, dose response (AID 493130);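 also: POS-1 as maltose binding protein fusion made in E. coli with FITC RNA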
Conditions: POS-1/mex-3 RNA fluorescence polarization, 1 h; at 10 µM (top of the series)
Inconclusive results are not listed. Calls of active or inactive are those of the source.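 The calls were made as follows: active = signal-lowering compounds whose fitted half-maximal concentration is at most ten times their highest tested dose; inconclusive = flat fit between -30 and -70%, or poor fit; inactive = flat within 30%, signal rising, or potency beyond limit.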
measured.parameter: activity change, negative = inhibition

INSERT INTO measurements (molecule, system_tested, value_measured) VALUES
  ('CCc1cccc2cc3c(N)c(C(=O)Nc4ccc(S(=O)(=O)N5CCCC5)cc4)sc3nc12', 'POS-1 (Caenorhabditis elegans) binding to mex-3 RNA', 'inactive'),
  ('O=[N+]([O-])c1cc([N+](=O)[O-])c2cccnc2c1Oc1ccccc1O', 'POS-1 (Caenorhabditis elegans) binding to mex-3 RNA', 'inactive'),
  ('CCCCN(C(=O)c1ccc([N+](=O)[O-])o1)c1c(N)n(CCCC)c(=O)[nH]c1=O', 'POS-1 (Caenorhabditis elegans) binding to mex-3 RNA', 'inactive'),
  ('OC(CNC1CCCC1)COc1ccccc1Br (configuration not stated)', 'POS-1 (Caenorhabditis elegans) binding to mex-3 RNA', 'inactive'),
  ('Cn1c(CNC(=O)c2ccc(F)cc2)cc2ccccc21', 'POS-1 (Caenorhabditis elegans) binding to mex-3 RNA', 'inactive'),
  ('CCN1C/C(=C/c2ccc(OC)c(O)c2)C(=O)/C(=C/c2ccc(OC)c(O)c2)C1', 'POS-1 (Caenorhabditis elegans) binding to mex-3 RNA', 'inactive'),
  ('O=C(NNC(=O)c1ccccc1Cl)c1csc(N2CCOCC2)n1', 'POS-1 (Caenorhabditis elegans) binding to mex-3 RNA', 'inactive'),
  ('Cc1nnc(SCc2nc3sc4c(c3c(=O)[nH]2)CCCC4)n(N)c1=O', 'POS-1 (Caenorhabditis elegans) binding to mex-3 RNA', 'inactive'),
  ('CCOC(=O)/C=c1\s/c(=C\c2ccc(-c3ccccc3)cc2)c(=O)n1CC(=O)NCc1ccc2c(c1)OCO2', 'POS-1 (Caenorhabditis elegans) binding to mex-3 RNA', 'inactive'),
  ('COc1ccc(N/C=C/C(=O)c2ccc3c(c2)OCO3)cc1OC', 'POS-1 (Caenorhabditis elegans) binding to mex-3 RNA', 'inactive'),
  ('CN(C)c1ccc(N=Cc2nc(-c3ccccc3)oc2OC(=O)c2cccc(Br)c2)cc1', 'POS-1 (Caenorhabditis elegans) binding to mex-3 RNA', 'inactive'),
  ('O=C(N/N=C/c1cccnc1)c1ccccc1', 'POS-1 (Caenorhabditis elegans) binding to mex-3 RNA', 'inactive'),
  ('COc1c(O)ccc(/C=C(\C#N)c2nc3ccccc3[nH]2)c1[N+](=O)[O-]', 'POS-1 (Caenorhabditis elegans) binding to mex-3 RNA', 'inactive'),
  ('CCOC(=O)C1CCN(c2nc(N)c3c(N)nc(SCC(=O)O)cc3c2C#N)CC1', 'POS-1 (Caenorhabditis elegans) binding to mex-3 RNA', 'inactive'),
  ('Cc1ccc2oc(=O)c(/C=C(\O)c3ccco3)nc2c1', 'POS-1 (Caenorhabditis elegans) binding to mex-3 RNA', 'inactive'),
  ('COc1ccc(N(CCC#N)C(=O)/C(C#N)=C\c2cccs2)cc1', 'POS-1 (Caenorhabditis elegans) binding to mex-3 RNA', 'inactive'),
  ('Cc1ccc(S(=O)(=O)c2cc3c(=O)n4cccc(C)c4nc3n(C3CCCCC3)c2=N)cc1', 'POS-1 (Caenorhabditis elegans) binding to mex-3 RNA', 'inactive'),
  ('CN=c1scc(-c2ccco2)n1/N=C/c1ccc(O)c(O)c1', 'POS-1 (Caenorhabditis elegans) binding to mex-3 RNA', 'inactive'),
  ('CCOc1c(O)ccc(/C=C2\SC(=S)NC2=O)c1[N+](=O)[O-]', 'POS-1 (Caenorhabditis elegans) binding to mex-3 RNA', 'inactive'),
  ('Cc1cccc(C(=O)NNC(=O)c2ccco2)c1O', 'POS-1 (Caenorhabditis elegans) binding to mex-3 RNA', 'inactive'),
  ('O=C(O)c1ccc(/C=C2\SC(=S)N(Nc3ccccc3)C2=O)cc1', 'POS-1 (Caenorhabditis elegans) binding to mex-3 RNA', 'inactive'),
  ('CCN(CC)c1ccc(/C=N/N2CCN(c3ccccc3OC)CC2)cc1', 'POS-1 (Caenorhabditis elegans) binding to mex-3 RNA', 'inactive');
